# assay_text: Mycobacterium tuberculosis H37Rv growth inhibition, cell based, confirmatory dose response (AID 1949);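 also: bacteria grown 7 days with compound before Alamar blue readout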
# study_conditions: M. tuberculosis H37Rv growth inhibition; stronger effect = higher value
About 1,600 (1.6%) of roughly 100,000 compounds were called active. Roughly 3% stayed inconclusive and do not appear here. A selection follows.
Categories are defined by ranges of inhibition, namely lower segment: < 2%; middle segment: ≥ 2% and < 3%; upper segment: ≥ 3%

INSERT INTO assay_data (compound, label) VALUES
  ('COc1ccc(CC(=O)NC(=S)N2CCOCC2)cc1', 'middle segment'),
  ('CCC(C)n1[nH]c(=O)c2c1NC(=O)CSC2c1ccc(Cl)cc1Cl (stereo unspecified)', 'middle segment'),
  ('Cc1nnc(SCC(=O)Nc2cccc(Cl)c2Cl)n1-c1ccc(F)cc1', 'upper segment'),
  ('CC1(C)Cc2nc3sc4c(=O)n(CC(=O)c5ccccc5)cnc4c3cc2CO1', 'lower segment'),
  ('Cc1cccc(-n2c(CCc3ccccc3)nnc2SCC(=O)Nc2c(C)cc(C)cc2C)c1', 'upper segment'),
  ('CCCCc1ccc(NC(=O)c2ccc3ccccc3c2)cc1', 'lower segment'),
  ('CCSc1nc(-c2cccs2)cc(-c2cccs2)c1C#N', 'upper segment'),
  ('CCOc1ccc(N2C(=O)CC(NCCNC(=O)c3ccc(Cl)cc3)C2=O)cc1 (stereo unspecified)', 'middle segment'),
  ('CC(=O)C(C)n1c(=O)oc2ccc(Cl)cc21 (stereo unspecified)', 'lower segment'),
  ('COC(=O)CSc1nc(C23CC4CC(CC(C4)C2)C3)cc(C(F)(F)F)c1C#N', 'lower segment'),
  ('COc1ccccc1CNC(=O)c1cc(OC)c(OC)cc1OC', 'middle segment'),
  ('COc1cccc2cc(-c3nnc(SCC(=O)Nc4cccc(SC)c4)n3C)oc12', 'lower segment'),
  ('Cc1ccc(F)cc1NC(=O)CSc1ccc(Br)cc1', 'upper segment'),
  ('CCc1ccc(-n2c(C)cc(C=NO)c2C)cc1', 'upper segment'),
  ('O=C(c1cn(-c2ccccc2)nc1-c1cccnc1)n1nnc2ccccc21', 'middle segment'),
  ('CCOC(=O)c1ccc(COC(=O)c2ccc(C=O)cc2)cc1', 'middle segment');

Source of measurements: PubChem BioAssay AID1949
